Test: Cmax in rat at 40 mg/kg, po administered QD measured after 1 day
Assay type: ADME, organism-based
Parameters: dose 40 mg/kg, route oral
Conditions: in vivo
PROPERTY_NAME: Cmax (ng/mL)

[[record]]
molecule = "COc1nc(N)nc2c1ncn2[C@@H]1O[C@@H]2COP(=O)(OC3CCCC3)O[C@H]2[C@@]1(C)F (stereo partly drawn)"
readout_units = "ng/mL"
observed = 160

[[record]]
molecule = "CC(C)Oc1nc(N)nc2c1ncn2[C@@H]1O[C@@H]2COP(=O)(OC3CCCC3)O[C@H]2[C@@]1(C)F (stereo partly drawn)"
readout_units = "ng/mL"
observed = 80

[[record]]
molecule = "COc1nc(N)nc2c1ncn2[C@@H]1O[C@@H]2COP(=O)(OC3CCC3)O[C@H]2[C@@]1(C)F (stereo partly drawn)"
readout_units = "ng/mL"
observed = 2080


----------
half-life values for the compounds below.
Assay: Half life in simulated gastric fluid
Assay type: physicochemical
PROPERTY_NAME: half-life

[[record]]
compound = "COc1nc(N)nc2c1ncn2[C@@H]1O[C@@H]2COP(=O)(OC(C)C)O[C@H]2[C@@]1(C)F (some centres undefined)"
observed = "> 20 h"

[[record]]
compound = "CCOc1nc(N)nc2c1ncn2[C@@H]1O[C@@H]2COP(=O)(OC(C)C)O[C@H]2[C@@]1(C)F (some centres undefined) [PSI-352938]"
observed = "> 20 h"

[[record]]
compound = "COc1nc(N)nc2c1ncn2[C@@H]1O[C@@H]2COP(=O)(OC3CCC3)O[C@H]2[C@@]1(C)F (some centres undefined)"
observed = "< 4 h"

[[record]]
compound = "CC(C)Oc1nc(N)nc2c1ncn2[C@@H]1O[C@@H]2COP(=O)(OC(C)C)O[C@H]2[C@@]1(C)F (some centres undefined)"
observed = "> 20 h"

